Molecular target: MYO3B(h) (Homo sapiens, UniProt Q8WXR4)
OUTCOME_MEASURE: pIC50
# pIC50 is unitless: minus log10 of the molar concentration; print number only

Value wanted: pIC50 (MYO3B(h) (Homo sapiens, UniProt Q8WXR4)) of entry C=CC(=O)Nc1cc(Nc2nccc(-c3c4n(c5ccccc35)CCCC4)n2)c(OC)cc1N(C)CCNC 6.30

###

Record form. Attribute: IC50. Fill in for each entry.
Target: EGFR^d746–750/T790M (Homo sapiens, UniProt P00533, DEL746-750/T790M)
Sequence (P00533 with tags, fused parts or gaps DEL746-750/T790M): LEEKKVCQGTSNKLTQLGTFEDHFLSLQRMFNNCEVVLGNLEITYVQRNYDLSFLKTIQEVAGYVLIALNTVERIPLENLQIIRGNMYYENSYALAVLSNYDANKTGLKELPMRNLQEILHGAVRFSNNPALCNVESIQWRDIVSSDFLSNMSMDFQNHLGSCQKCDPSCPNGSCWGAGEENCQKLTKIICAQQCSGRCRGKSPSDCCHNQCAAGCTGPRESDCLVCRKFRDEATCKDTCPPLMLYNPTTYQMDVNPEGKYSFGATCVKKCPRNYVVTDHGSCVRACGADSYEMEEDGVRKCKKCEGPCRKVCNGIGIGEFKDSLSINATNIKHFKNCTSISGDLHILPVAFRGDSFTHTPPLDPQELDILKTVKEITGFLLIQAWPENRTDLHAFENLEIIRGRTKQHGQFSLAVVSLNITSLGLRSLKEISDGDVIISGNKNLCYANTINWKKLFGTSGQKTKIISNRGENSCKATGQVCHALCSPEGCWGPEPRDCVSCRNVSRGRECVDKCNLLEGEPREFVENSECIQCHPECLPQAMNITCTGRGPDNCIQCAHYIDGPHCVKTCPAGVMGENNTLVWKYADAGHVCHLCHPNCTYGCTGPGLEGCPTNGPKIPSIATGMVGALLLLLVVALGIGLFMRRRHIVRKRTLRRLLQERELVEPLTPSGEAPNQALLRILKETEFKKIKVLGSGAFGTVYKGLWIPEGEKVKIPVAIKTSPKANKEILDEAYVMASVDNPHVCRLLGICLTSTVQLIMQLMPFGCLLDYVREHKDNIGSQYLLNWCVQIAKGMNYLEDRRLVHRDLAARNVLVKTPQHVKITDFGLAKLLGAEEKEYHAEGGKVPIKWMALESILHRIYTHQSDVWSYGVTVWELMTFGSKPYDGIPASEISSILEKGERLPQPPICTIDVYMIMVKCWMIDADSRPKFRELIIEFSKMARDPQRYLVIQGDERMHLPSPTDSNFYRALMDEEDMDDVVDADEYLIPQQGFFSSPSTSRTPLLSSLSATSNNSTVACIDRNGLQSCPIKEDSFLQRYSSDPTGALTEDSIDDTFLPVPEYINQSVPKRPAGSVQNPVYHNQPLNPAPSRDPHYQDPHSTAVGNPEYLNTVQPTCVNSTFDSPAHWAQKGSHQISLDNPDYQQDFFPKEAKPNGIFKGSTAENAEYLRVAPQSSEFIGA
Test: EGFR kinase inhibition assay (HTRF)
Settings: 30 μmol/L ATP, no pre-incubation, n = 3
Numeric answer only, unit nM assumed.

Could you share what IC50 was measured for C=CC(=O)Nc1cc(Nc2nccc(-c3c4n(c5ccccc35)CCCC4)n2)c(OC)cc1N(C)CCN(C)C , tested on EGFR^d746–750/T790M (Homo sapiens, UniProt P00533, DEL746-750/T790M)? 0.89

For the record C=CC(=O)Nc1cc(Nc2nccc(-c3c4n(c5ccccc35)CCCC4)n2)c(OC)cc1N(C)CCNC , what value of IC50 is listed for EGFR^d746–750/T790M (Homo sapiens, UniProt P00533, DEL746-750/T790M)? 1.1

###

Biological target: Fer(h) (Homo sapiens, UniProt P16591)
Construct: purchased Eurofins
Assay: Kinase panel (Eurofins)
Assay type: biochemical
Details: n = 2; read-out: IC50 kinase inhibition
Field: pIC50. Provide a value for each of the compounds that follow.
# log scale: pIC50 equals minus log10 of the concentration in mol/L

What value of pIC50 has been recorded for this entry: C=CC(=O)Nc1cc(Nc2nccc(-c3c4n(c5ccccc35)CCCC4)n2)c(OC)cc1N(C)CCN(C)C [SH-1028] 6.27

I'd like to know its pIC50. The compound in question is C=CC(=O)Nc1cc(Nc2nccc(-c3c4n(c5ccccc35)CCCC4)n2)c(OC)cc1N(C)CCNC [Imp3] 6.34

###

Assign IC50 to each entry below.
Target: IGF-1R(h), activated (Homo sapiens)
Sequence (P08069 31-1367): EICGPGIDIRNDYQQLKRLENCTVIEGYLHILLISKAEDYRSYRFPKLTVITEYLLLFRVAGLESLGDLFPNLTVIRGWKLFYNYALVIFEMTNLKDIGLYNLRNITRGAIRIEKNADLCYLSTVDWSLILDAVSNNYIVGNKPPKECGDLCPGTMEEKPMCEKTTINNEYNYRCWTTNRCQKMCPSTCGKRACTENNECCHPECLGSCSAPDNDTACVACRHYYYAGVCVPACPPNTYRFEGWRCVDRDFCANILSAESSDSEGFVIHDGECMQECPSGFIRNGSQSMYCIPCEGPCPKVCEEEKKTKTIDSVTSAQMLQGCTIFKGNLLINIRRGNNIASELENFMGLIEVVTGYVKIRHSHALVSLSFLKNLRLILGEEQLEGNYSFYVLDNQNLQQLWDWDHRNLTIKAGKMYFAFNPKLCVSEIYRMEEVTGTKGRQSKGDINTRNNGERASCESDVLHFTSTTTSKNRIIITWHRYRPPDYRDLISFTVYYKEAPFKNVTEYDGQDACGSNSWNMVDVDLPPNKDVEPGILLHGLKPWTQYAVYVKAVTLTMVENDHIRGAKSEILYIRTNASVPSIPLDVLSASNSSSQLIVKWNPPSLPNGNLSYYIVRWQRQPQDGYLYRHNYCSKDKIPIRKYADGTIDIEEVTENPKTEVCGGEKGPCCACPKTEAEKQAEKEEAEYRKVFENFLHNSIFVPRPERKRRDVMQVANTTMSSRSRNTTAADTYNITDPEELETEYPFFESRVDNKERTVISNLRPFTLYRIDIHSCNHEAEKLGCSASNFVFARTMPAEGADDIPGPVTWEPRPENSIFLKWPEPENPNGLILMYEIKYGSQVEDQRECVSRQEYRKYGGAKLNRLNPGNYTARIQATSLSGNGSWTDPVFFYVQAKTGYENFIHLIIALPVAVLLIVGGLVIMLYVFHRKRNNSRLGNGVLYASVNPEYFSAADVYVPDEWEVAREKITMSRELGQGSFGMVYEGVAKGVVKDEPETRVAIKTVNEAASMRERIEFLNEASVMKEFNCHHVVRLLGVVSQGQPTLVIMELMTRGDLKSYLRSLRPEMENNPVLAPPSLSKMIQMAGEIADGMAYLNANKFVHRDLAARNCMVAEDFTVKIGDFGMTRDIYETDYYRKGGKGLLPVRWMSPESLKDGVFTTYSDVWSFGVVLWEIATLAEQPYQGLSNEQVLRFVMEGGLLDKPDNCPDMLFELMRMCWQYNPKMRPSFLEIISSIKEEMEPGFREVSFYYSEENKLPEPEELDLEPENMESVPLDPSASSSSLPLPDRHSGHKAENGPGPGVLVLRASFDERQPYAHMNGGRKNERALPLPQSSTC
Assay: Kinase panel (Eurofins)
Details: n = 2; read-out: IC50 kinase inhibition
Excerpt: These receptors have a methionine gatekeeper in their kinase domains, and are related to hyperglycemia in other clinical trials of EGFR TKI, such as Co-1686.
Give the value in nM but do not write nM after it.

Please give the measured IC50 for this compound: C=CC(=O)Nc1cc(Nc2nccc(-c3c4n(c5ccccc35)CCCC4)n2)c(OC)cc1N(C)CCN(C)C 499

Entry C=CC(=O)Nc1cc(Nc2nccc(-c3c4n(c5ccccc35)CCCC4)n2)c(OC)cc1N(C)CCNC has what IC50? 709

###

Experiment: Plasma pharmacokinetics in NCI-H1975 tumor-bearing mice
Format: in vivo
Conditions: Nu/Nu nude, mouse, plasma, po, 5 mg/kg, 5 mg/kg oral, Day 1; read-out: AUC0–t in plasma
OUTCOME_MEASURE: AUC(0-t) (ng·h/mL)
# number only, unit ng·h/mL dropped from output

Given the compound C=CC(=O)Nc1cc(Nc2nccc(-c3c4n(c5ccccc35)CCCC4)n2)c(OC)cc1N(C)CCN(C)C , what is its reported AUC(0-t)? 300

###

Please go through the items and note down their IC50.
Biological target: Flt3 (D835Y) (h) (Homo sapiens, UniProt P36888, D835Y)
Test: Kinase panel (Eurofins)
Conditions: n = 2; read-out: IC50 kinase inhibition

Look up IC50: C=CC(=O)Nc1cc(Nc2nccc(-c3c4n(c5ccccc35)CCCC4)n2)c(OC)cc1N(C)CCNC 41 nM

For the molecule shown here, C=CC(=O)Nc1cc(Nc2nccc(-c3c4n(c5ccccc35)CCCC4)n2)c(OC)cc1N(C)CCN(C)C , give the reported IC50. 78 nM

###

OUTCOME_MEASURE: pIC50
# log scale: pIC50 equals minus log10 of the concentration in mol/L

Provide value of pIC50 for this record tested with Mnk2(h) (Homo sapiens): C=CC(=O)Nc1cc(Nc2nccc(-c3c4n(c5ccccc35)CCCC4)n2)c(OC)cc1N(C)CCN(C)C [SH-1028] 7.64

###

Experiment: Plasma pharmacokinetics in NCI-H1975 tumor-bearing mice
Assay type: in vivo
Conditions: Nu/Nu nude, mouse, plasma; oral 2.5, 5 and 15 mg/kg
OUTCOME_MEASURE: Tmax

Could you tell me which Tmax is on file for C=CC(=O)Nc1cc(Nc2nccc(-c3c4n(c5ccccc35)CCCC4)n2)c(OC)cc1N(C)CCN(C)C [SH-1028] ? 1.5 to 2 h

###

For each of the compounds below, state its IC50.
Target: Tec(h) activated (Homo sapiens)
Experiment: Kinase panel (Eurofins)
Settings: n = 2; read-out: IC50 kinase inhibition
Write the answer as a number in nM, unit excluded.

Reported IC50, compound C=CC(=O)Nc1cc(Nc2nccc(-c3c4n(c5ccccc35)CCCC4)n2)c(OC)cc1N(C)CCN(C)C : ____ 150

Given C=CC(=O)Nc1cc(Nc2nccc(-c3c4n(c5ccccc35)CCCC4)n2)c(OC)cc1N(C)CCNC , state its recorded IC50. 272

###

OUTCOME_MEASURE: pIC50
# log scale: pIC50 equals minus log10 of the concentration in mol/L

Reported pIC50 for UniProt:P04626, given C=CC(=O)Nc1cc(Nc2nccc(-c3c4n(c5ccccc35)CCCC4)n2)c(OC)cc1N(C)CCN(C)C ? 7.26

###

I'd be grateful if you could share measured IC50 for these entries.
Use nM as the unit, but write only the number.

# query: IC50 | item C=CC(=O)Nc1cc(Nc2nccc(-c3c4n(c5ccccc35)CCCC4)n2)c(OC)cc1N(C)CCN(C)C [SH-1028] | system: IGF-1R(h) (Homo sapiens) 574

Query IC50 on IGF-1R(h) (Homo sapiens) for C=CC(=O)Nc1cc(Nc2nccc(-c3c4n(c5ccccc35)CCCC4)n2)c(OC)cc1N(C)CCNC [Imp3] 812

###

Target: EGFR^L861Q (Homo sapiens, UniProt P00533, L861Q)
Sequence (P00533 25-1210 L861Q): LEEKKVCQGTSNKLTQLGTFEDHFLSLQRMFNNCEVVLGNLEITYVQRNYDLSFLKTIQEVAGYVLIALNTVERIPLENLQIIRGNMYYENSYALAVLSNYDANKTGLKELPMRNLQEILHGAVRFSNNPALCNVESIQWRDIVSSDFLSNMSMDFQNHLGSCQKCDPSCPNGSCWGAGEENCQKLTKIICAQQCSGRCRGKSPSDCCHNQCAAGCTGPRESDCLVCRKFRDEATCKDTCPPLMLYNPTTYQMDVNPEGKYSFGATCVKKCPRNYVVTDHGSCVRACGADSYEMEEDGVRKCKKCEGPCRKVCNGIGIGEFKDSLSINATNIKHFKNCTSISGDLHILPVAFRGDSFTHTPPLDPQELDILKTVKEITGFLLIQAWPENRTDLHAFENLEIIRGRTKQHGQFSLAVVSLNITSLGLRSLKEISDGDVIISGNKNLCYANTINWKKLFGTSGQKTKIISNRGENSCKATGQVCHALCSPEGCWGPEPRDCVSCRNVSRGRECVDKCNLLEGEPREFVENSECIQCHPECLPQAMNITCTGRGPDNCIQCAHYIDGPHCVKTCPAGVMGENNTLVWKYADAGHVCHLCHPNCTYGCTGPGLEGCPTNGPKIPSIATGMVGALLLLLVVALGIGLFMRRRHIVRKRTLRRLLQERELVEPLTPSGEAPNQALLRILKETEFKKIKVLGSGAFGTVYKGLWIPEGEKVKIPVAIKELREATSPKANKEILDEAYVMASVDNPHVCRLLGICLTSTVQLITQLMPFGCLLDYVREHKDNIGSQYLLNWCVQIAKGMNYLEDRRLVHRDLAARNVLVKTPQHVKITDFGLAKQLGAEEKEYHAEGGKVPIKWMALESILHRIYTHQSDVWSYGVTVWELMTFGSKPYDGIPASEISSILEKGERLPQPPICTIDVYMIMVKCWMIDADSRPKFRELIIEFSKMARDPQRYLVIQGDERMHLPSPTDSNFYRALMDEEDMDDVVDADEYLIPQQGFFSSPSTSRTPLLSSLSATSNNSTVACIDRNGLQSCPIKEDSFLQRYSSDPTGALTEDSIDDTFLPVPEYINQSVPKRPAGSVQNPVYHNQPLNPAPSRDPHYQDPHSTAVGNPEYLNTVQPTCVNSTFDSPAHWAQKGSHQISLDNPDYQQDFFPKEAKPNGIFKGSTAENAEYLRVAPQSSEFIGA
Assay: EGFR kinase inhibition assay (HTRF)
Details: 30 μmol/L ATP, no pre-incubation, n = 3
OUTCOME_MEASURE: IC50 (µM)
Value expressed in µM; do not type the unit.

What IC50 value was documented for this compound, C=CC(=O)Nc1cc(Nc2nccc(-c3c4n(c5ccccc35)CCCC4)n2)c(OC)cc1N(C)CCNC [Imp3] ? 0.032

Given the compound C=CC(=O)Nc1cc(Nc2nccc(-c3c4n(c5ccccc35)CCCC4)n2)c(OC)cc1N(C)CCN(C)C [SH-1028] , what is its reported IC50? 0.004

###

OUTCOME_MEASURE: IC50 (nM)
Form entry: value (nM) — number only.

# value lookup — system LTK(h) (Homo sapiens), readout IC50, item C=CC(=O)Nc1cc(Nc2nccc(-c3c4n(c5ccccc35)CCCC4)n2)c(OC)cc1N(C)CCNC [Imp3] 61

###

Target: EGFR^L858R/T790M (Homo sapiens, UniProt P00533, L858R/T790M)
Construct: with amino acids 696-end containing the mutations T790M and L858R; GST (N); purchased Millipore
Sequence (P00533 696-1210 T790M/L858R): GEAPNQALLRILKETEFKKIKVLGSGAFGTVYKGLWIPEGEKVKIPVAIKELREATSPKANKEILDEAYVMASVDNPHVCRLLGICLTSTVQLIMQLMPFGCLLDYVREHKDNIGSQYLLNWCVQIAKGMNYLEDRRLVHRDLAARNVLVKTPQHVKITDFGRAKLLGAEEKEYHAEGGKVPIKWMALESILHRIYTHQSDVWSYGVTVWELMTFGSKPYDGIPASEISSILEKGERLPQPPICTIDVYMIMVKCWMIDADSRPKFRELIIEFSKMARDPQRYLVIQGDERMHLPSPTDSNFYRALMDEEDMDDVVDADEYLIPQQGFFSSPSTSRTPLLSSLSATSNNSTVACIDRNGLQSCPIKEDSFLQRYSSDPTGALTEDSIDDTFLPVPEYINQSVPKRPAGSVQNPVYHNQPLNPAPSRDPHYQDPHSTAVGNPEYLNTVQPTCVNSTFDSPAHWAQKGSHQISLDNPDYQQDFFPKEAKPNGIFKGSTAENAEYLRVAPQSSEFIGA
Assay: EGFR kinase inhibition assay (HTRF)
Assay type: biochemical
Settings: 30 μmol/L ATP, no pre-incubation, n = 3
Task for the reader: assign each of the following molecules its reported IC50.
Please state the figure in nM; there is no need to write the unit.

Reported IC50, molecule C=CC(=O)Nc1cc(Nc2nccc(-c3c4n(c5ccccc35)CCCC4)n2)c(OC)cc1N(C)CCNC : ____ 1

# IC50 lookup, item C=CC(=O)Nc1cc(Nc2nccc(-c3c4n(c5ccccc35)CCCC4)n2)c(OC)cc1N(C)CCN(C)C 0.1

###

Molecular target: BRK(h) (Homo sapiens, UniProt Q13882)
OUTCOME_MEASURE: pIC50
Notebook: values listed as pIC50 are -log10 of the concentration (mol/L).

Consider the molecule shown here: C=CC(=O)Nc1cc(Nc2nccc(-c3c4n(c5ccccc35)CCCC4)n2)c(OC)cc1N(C)CCNC [Imp3] What is its recorded pIC50? 7.10

###

Molecular target: HIPK4(h) (Homo sapiens, UniProt Q8NE63)
Sequence (Q8NE63 1-616): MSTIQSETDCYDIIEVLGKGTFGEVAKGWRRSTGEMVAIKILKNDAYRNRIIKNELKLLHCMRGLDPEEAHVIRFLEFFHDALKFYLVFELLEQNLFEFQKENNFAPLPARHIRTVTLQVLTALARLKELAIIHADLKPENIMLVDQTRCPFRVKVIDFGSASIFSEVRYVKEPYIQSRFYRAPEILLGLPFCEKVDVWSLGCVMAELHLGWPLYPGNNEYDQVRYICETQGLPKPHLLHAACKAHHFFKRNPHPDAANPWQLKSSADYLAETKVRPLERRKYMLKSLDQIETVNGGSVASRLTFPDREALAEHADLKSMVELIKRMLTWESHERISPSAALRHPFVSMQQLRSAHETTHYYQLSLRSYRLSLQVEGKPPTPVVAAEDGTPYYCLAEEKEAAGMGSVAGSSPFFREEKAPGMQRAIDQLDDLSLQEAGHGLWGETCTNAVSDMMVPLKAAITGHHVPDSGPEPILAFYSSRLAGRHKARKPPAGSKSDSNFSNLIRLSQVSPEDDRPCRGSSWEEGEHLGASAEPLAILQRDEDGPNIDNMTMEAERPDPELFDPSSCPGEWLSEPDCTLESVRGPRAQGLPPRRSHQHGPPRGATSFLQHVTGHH
OUTCOME_MEASURE: IC50
Your answer should be a number followed by the unit of measure.

Tell me the measured IC50 of C=CC(=O)Nc1cc(Nc2nccc(-c3c4n(c5ccccc35)CCCC4)n2)c(OC)cc1N(C)CCN(C)C , please. 232 nM

Which IC50 value is on record for C=CC(=O)Nc1cc(Nc2nccc(-c3c4n(c5ccccc35)CCCC4)n2)c(OC)cc1N(C)CCNC ? 276 nM
